assay.target: T1, human plasma Kallikrein (human, UniProt P03952 20-638, limits assumed)
T1 construct: also called hPK; human PK
T1 sequence (P03952 20-638 limits assumed): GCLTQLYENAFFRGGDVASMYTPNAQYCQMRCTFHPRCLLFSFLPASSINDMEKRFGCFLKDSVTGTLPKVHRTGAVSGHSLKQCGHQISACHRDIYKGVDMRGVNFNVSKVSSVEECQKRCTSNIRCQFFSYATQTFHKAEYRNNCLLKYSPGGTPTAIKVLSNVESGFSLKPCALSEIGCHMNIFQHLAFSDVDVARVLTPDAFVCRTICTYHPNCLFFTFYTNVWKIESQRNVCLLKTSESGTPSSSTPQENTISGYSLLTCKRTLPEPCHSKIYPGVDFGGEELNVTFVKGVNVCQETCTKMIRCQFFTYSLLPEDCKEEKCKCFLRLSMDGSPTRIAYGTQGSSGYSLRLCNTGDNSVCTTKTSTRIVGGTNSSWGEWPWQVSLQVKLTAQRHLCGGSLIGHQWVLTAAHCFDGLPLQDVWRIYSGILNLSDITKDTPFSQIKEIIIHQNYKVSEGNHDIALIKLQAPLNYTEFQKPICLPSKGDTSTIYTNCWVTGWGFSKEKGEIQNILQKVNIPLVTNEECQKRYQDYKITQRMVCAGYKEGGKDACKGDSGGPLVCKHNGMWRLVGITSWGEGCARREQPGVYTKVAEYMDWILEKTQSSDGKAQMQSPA
assay.name: enzyme inhibition assay
Numbered stars: 1 amine (or outer) side, 2 acyl side, 3 side chain; on linkers, the order of the positions; unused ones are H or OH. Bridge positions count the residues as written; N and C are the ends. Square brackets hold non-standard residues; d marks the D form. NMeW = CN[C@@H](Cc1c[nH]c2ccccc12)C(=O)O; TBMB = c1c(C[*:1])cc(C[*:3])cc1C[*:2]; NMeR = CN[C@@H](CCCNC(=N)N)C(=O)O; NMeS = CN[C@@H](CO)C(=O)O
measure: pKi
pKi is defined as minus the log10 of a concentration measured in mol/L.

## Input Any idea what pKi was measured for Ac-C[NMeS]WPARCLHQDLC-NH2 (linker 1-7-13 via TBMB; SMILES CC(=O)N[C@H]1CSCc2cc3cc(c2)CSC[C@H](NC(=O)[C@H](CCCNC(=N)N)NC(=O)[C@H](C)NC(=O)[C@@H]2CCCN2C(=O)[C@H](Cc2c[nH]c4ccccc24)NC(=O)[C@H](CO)N(C)C1=O)C(=O)N[C@@H](CC(C)C)C(=O)N[C@@H](Cc1c[nH]cn1)C(=O)N[C@@H](CCC(N)=O)C(=O)N[C@@H](CC(=O)O)C(=O)N[C@@H](CC(C)C)C(=O)N[C@H](C(N)=O)CSC3) [Ac-(06-34-18) NMeSer1] ?
## Output 9.30

## Input Param item: Ac-CSWPA[NMeR]CLHQDLC-NH2 (linker 1-7-13 via TBMB; SMILES CC(=O)N[C@H]1CSCc2cc3cc(c2)CSC[C@H](NC(=O)[C@H](CCCNC(=N)N)N(C)C(=O)[C@H](C)NC(=O)[C@@H]2CCCN2C(=O)[C@H](Cc2c[nH]c4ccccc24)NC(=O)[C@H](CO)NC1=O)C(=O)N[C@@H](CC(C)C)C(=O)N[C@@H](Cc1c[nH]cn1)C(=O)N[C@@H](CCC(N)=O)C(=O)N[C@@H](CC(=O)O)C(=O)N[C@@H](CC(C)C)C(=O)N[C@H](C(N)=O)CSC3) [Ac-(06-34-18) NMeArg5]
## Output 8.46

## Input Param item: Ac-CS[NMeW]PARCLHQDLC-NH2 (linker 1-7-13 via TBMB; SMILES CC(=O)N[C@H]1CSCc2cc3cc(c2)CSC[C@H](NC(=O)[C@H](CCCNC(=N)N)NC(=O)[C@H](C)NC(=O)[C@@H]2CCCN2C(=O)[C@H](Cc2c[nH]c4ccccc24)N(C)C(=O)[C@H](CO)NC1=O)C(=O)N[C@@H](CC(C)C)C(=O)N[C@@H](Cc1c[nH]cn1)C(=O)N[C@@H](CCC(N)=O)C(=O)N[C@@H](CC(=O)O)C(=O)N[C@@H](CC(C)C)C(=O)N[C@H](C(N)=O)CSC3) [Ac-(06-34-18) NMeTrp2]
## Output 6.64
